# TGT: pre-pro-insulin glargine
RECORDED_ENDPOINT: desArg

Answered examples (2):
{"columns": ["PROTEIN", "desArg"],
 "data": [
  ["trypsin variant SEQ ID NO: 14 (protein) IVGGYTCAANSIPYQVSLNSGSHRCGGSLINSQWVVSAAHCYKSRIQVRLGEHNIDVLEGNEQFINAAKIITHPNFNGNTLDNDIMLIKLSSPATLNSHVATVSLPRSCAAAGTECLISGWGNTKSSGSSYPSLLQCLKAPVLSDSSCKSSYPGQITGNMICVGFLEGGKDACQGDSGGPVVCNGQLQGIVSSGYGCAQKNKPGVYTKVCNYVNWIQQTIAAN", "< 0.5 area %"],
  ["trypsin variant SEQ ID NO: 84 (protein) IVGGYTCAANSIPYQVSLNSGSHRCGGSLINSQWVVSAAHCYKPRIQVRLGEHNIHVLEGNEQFINAAKIITHPNFNPNTLDNDIMLIKLSSPATLNSNVATVSLPTSCAAAGTECLISGWGNTSSSGSSMPSLLQCLKAPVLSDSSCKSSYPGQITGNMICVGFLEGGKDSCQGDSGGPVVCNGQLQGIVSSGYGCAQKNKPGVYTKVCNYVNWIQQTIAAN", "0.6 area %"]
]}

Kindly review the next protein as well.
Entry trypsin variant SEQ ID NO: 109 (protein) IVGGYTCAANSIPYQVSLNSGSHRCGGSLINSQWVVSAAHCYKSRIQVRLGEHNIHVLEGNEQFINAAKIITHPNFNGNTLDNDIMLIKLSSPATLNSNVATVSLPTSCAAAGTECLISGWGNTCSSGSSMPSLLQCLKAPVLSDSSCKSSYPGQITGNMICVGFLEGGADACQGDSGGPVVCNGQLQGIVSSGYGCAQKNKPGVYTKVCNYVNWIQQTIAAN — recorded desArg = 0.7 area %

src = patent US20230303994
